These entries and their values trace back to the OligoGym collection.

# experimental.parameters: siRNA; also: test system not given here
HELM strings list units from the 5' end as sugar, base in round brackets, then linkage (d deoxyribose, r ribose, m 2'-O-methyl, p phosphodiester). Strings are as the collection lists them, not checked against the first reports. ss, as = sense and antisense strand; [s4r] = 4'-thioribose
Exercise: state measured target mRNA knockdown for each of the substances provided.
One number for each entry, in %.

Reference set (3 entries):
substance: RNA1{m(A)p.r(A)p.m(A)p.r(G)p.m(G)p.r(G)p.m(G)p.r(A)p.m(G)p.r(U)p.m(U)p.r(G)p.m(C)p.r(U)p.m(G)p.r(G)p.m(A)p.r(A)p.m(G)p.r(T)p.r(T)}|RNA2{r(C)p.r(U)p.r(U)p.r(C)p.r(C)p.r(A)p.r(G)p.r(C)p.m(A)p.m(A)p.r(C)p.r(U)p.r(C)p.r(C)p.r(C)p.r(C)p.r(U)p.r(U)p.r(U)p.r(T)p.r(T)}$$$RNA1{StrandType:ss}|RNA2{StrandType:as}$
measure.unit: %
target mRNA knockdown: 47
//
substance: RNA1{m(G)p.r(C)p.m(A)p.m(G)p.m(A)p.m(G)p.m(A)p.m(A)p.r(U)p.r(C)p.r(U)p.m(A)p.r(C)p.r(C)p.r(U)p.r(U)p.r(U)p.r(C)p.r(C)p.r(T)p.r(T)}|RNA2{r(G)p.r(G)p.r(A)p.r(A)p.r(A)p.r(G)p.r(G)p.r(U)p.r(A)p.r(G)p.r(A)p.r(U)p.r(U)p.r(C)p.r(U)p.r(C)p.r(U)p.r(G)p.r(C)p.r(T)p.r(T)}$$$RNA1{StrandType:ss}|RNA2{StrandType:as}$
measure.unit: %
target mRNA knockdown: 65
//
substance: RNA1{r(C)p.r(G)p.r(U)p.r(A)p.r(C)p.r(G)p.r(C)p.r(G)p.r(G)p.r(A)p.r(A)p.r(U)p.r(A)p.r(C)p.r(U)p.[s4r](U)p.[s4r](C)p.[s4r](G)p.[s4r](A)p.r(T)p.r(T)}|RNA2{r(U)p.r(C)p.r(G)p.r(A)p.r(A)p.r(G)p.r(U)p.r(A)p.r(U)p.r(U)p.r(C)p.r(C)p.r(G)p.r(C)p.r(G)p.r(U)p.r(A)p.r(C)p.r(G)p.r(T)p.r(T)}$$$RNA1{StrandType:ss}|RNA2{StrandType:as}$
measure.unit: %
target mRNA knockdown: 94.3

Dear colleague, could you send me target mRNA knockdown for each of the items below? Thanks.
1. RNA1{r(G)p.r(A)p.r(A)p.r(C)p.r(U)p.r(C)p.r(U)p.r(U)p.r(A)p.r(G)p.r(C)p.r(G)p.r(U)p.r(A)p.r(U)p.r(G)p.r(C)p.r(A)p.r(A)p.d(T)p.d(T)}|RNA2{r(U)p.r(U)p.r(G)p.r(C)p.r(A)p.r(U)p.r(A)p.r(C)p.r(G)p.r(C)p.r(U)p.r(A)p.r(A)p.r(G)p.r(A)p.r(G)p.r(U)p.r(U)p.r(C)p.d(T)p.d(T)}$$$RNA1{StrandType:ss}|RNA2{StrandType:as}$
2. RNA1{r(A)p.r(A)p.m(U)p.r(A)p.r(A)p.r(G)p.m(C)p.r(A)p.r(G)p.r(C)p.r(U)p.r(C)p.r(G)p.m(C)p.r(G)p.r(C)p.r(U)p.r(C)p.r(C)p.r(T)p.r(T)}|RNA2{r(G)p.r(G)p.r(A)p.r(G)p.r(C)p.r(G)p.r(C)p.r(G)p.r(A)p.r(G)p.r(C)p.m(U)p.r(G)p.r(C)p.r(U)p.m(U)p.r(A)p.r(U)p.r(U)p.r(T)p.r(T)}$$$RNA1{StrandType:ss}|RNA2{StrandType:as}$

Result:
56
51
